Entries and their log10 of TGI values follow.
tested on: MDA-MB-435; assay: NCI tumour cell line growth inhibition, 48 h
Outcome measure: log10 of TGI (log10 of the value in µM)

* CCCCCCC(O)C(O)CCC(O)C1CCC(CCCCC(O)CC2=CC(C)OC2=O)O1 (centres undefined) | 1.74
* CCCc1n(Cc2ccc3ccccc3n2)cc[n+]1Cc1ccc2ccccc2c1 | 0.34
* COc1ccc(C[C@H]2NC[C@H](O)[C@H]2OC(C)=O)cc1 | -0.71
* Clc1nc(-c2ccccc2)nc(Cl)c1Cl | 1.43
* Cc1ccc2c(c1)-c1oc(=O)c(-c3cc4ccccc4oc3=O)cc1C(O)O2 (centres undefined) | 1.66
* CCCCCCCCCCCCC(NC(C)=O)(C(=O)OCC)C(=O)OCC | 1.50
* CCCCCCCCCC[N+](C)(C)C | 0.63
* Cc1ccc(-n2c3c(c4c(CN)c(O)ccc42)CCc2ccccc2C3=O)cc1 | 0.95
* CCCCn1c(C)c2c(c1C)C(=O)N(CCN1CCN(c3ccccc3Cl)CC1)C2=O | 1.96
* CCN(CC)CCC(=O)N1C/C(=C/c2ccccc2)C(=O)/C(=C\c2ccccc2)C1 | 0.74
* C=C(C)C1CC2=C(O1)C(=O)c1cccc(O)c1C2=O (centres undefined) | -0.57
* Nc1nc(Cc2ccccc2)nc(Cc2ccccc2)c1-c1ccccc1 | 1.77
* CCCCCC(=C/c1ccccc1)/C=N/N=C(N)N | 0.52
* C[C@@]1(O)CCC[C@H]1n1c(=O)c(C(F)F)cc2cnc(NC3CCN(S(C)(=O)=O)CC3)nc21 | 0.95
